Biological target: GST-RIPK2 fusion protein (human RIPK2 amino acids 1-310) (Homo sapiens (Human))
Experiment: RIPK2 binding competition assay (TR-FRET, Tracer 199)
pIC50: −log10 of the molar value.
measured-attribute: pIC50

>>> recorded_result("COc1cn2ncc(-c3cc(F)c(N)nc3F)c2cc1S(=O)(=O)C(C)(C)C [Example 100]")
"7.70 to 8.60"
>>> recorded_result("COc1cc2ncc(-c3cc(N)cc(F)c3)n2cc1S(=O)(=O)C(C)(C)C [Example 157]")
"7.70 to 8.60"
>>> recorded_result("COc1cc2ncc(-c3cc(F)nc(N(C)CCCO)c3)n2cc1S(=O)(=O)C(C)(C)C [Example 209]")
"8.60 to 9.00"
>>> recorded_result("COc1cc2ncc(-c3cc(Cl)c(N)nc3F)n2cc1S(=O)(=O)C(C)(C)C [Example 75]")
"7.70 to 8.60"
>>> recorded_result("CCCS(=O)(=O)Nc1cccc(-c2cnc3cc(OC)c(S(=O)(=O)C(C)(C)C)cn23)c1 [Example 269]")
"8.60 to 9.00"
>>> recorded_result("COc1cc2ncc(-c3cccc(NS(=O)(=O)CC(C)C)c3)n2cc1S(=O)(=O)C(C)(C)C [Example 280]")
"8.60 to 9.00"
>>> recorded_result("COc1cc2ncc(-c3cc(Cl)nc(NCCCO)c3)n2cc1S(=O)(=O)C(C)(C)C [Example 327]")
"8.60 to 9.00"
>>> recorded_result("COc1cc2ncc(-c3cc(F)nc(NCCC(C)O)c3)n2cc1S(=O)(=O)C(C)(C)C (single isomer, unassigned) [Example 169]")
"> 9.00"

Each of the following entries comes with a recorded value; kindly state pIC50 for each.
1. CCCS(=O)(=O)Nc1cc(-c2cnc3cc(OC)c(S(=O)(=O)C(C)(C)C)cn23)cc(F)c1OC [Example 275]
2. COc1cc2ncc(-c3cc(F)c(OC)c(OCCO)c3)n2cc1S(=O)(=O)C(C)(C)C [Example 338]
3. COc1cc2ncc(-c3cc(F)c(OC)c(NCCN)c3)n2cc1S(=O)(=O)C(C)(C)C [Example 329]
4. COc1cc2ncc(-c3ccc(N)c(C#N)c3F)n2cc1S(=O)(=O)C(C)(C)C [Example 91]

> 9.00
7.70 to 8.60
7.70 to 8.60
7.70 to 8.60

====

System: NF-κB pathway (SEAP) in THP1-Dual cells
Experiment: THP-1 Dual cell SEAP assay (L18-MDP stimulated)
Format: cell-based
Conditions: Homo sapiens, THP1-Dual, read-out: NFkB THP1 IC50
For each entry below, report its IC50 value.

Each of the following entries comes with a recorded value; kindly state IC50 for each.
1. COc1cc2ncc(-c3cnc(N)c(OC)c3)n2cc1S(=O)(=O)C(C)(C)C [Example 17]
2. CCCS(=O)(=O)Nc1c(OC)ccc(-c2cnc3cc(OC)c(S(=O)(=O)C(C)(C)C)cn23)c1F [Example 257]
3. COc1cc2ncc(-c3cnc(N)c(C4CC4)c3)n2cc1S(=O)(=O)C(C)(C)C [Example 84]
4. COc1cc2ncc(-c3ccc(C)c(N)n3)n2cc1S(=O)(=O)C(C)(C)C [Example 332]
5. COc1cn2ncc(-c3cc(OC)c(N)nc3F)c2cc1S(=O)(=O)C(C)(C)C [Example 104]
6. COc1cc2ncc(-c3ccc(N)c(F)c3)n2cc1S(=O)(=O)C(C)(C)C [Example 20]
7. CNc1cc(-c2cnc3cc(OC)c(S(=O)(=O)C(C)(C)C)cn23)cc(OC)c1OC [Example 326]

> 1000 nM
> 1000 nM
> 1000 nM
> 1000 nM
> 1000 nM
250 to 1000 nM
50 to 250 nM

Each of the following entries comes with a recorded value; kindly state IC50 for each.
1. CCCS(=O)(=O)Nc1cc(-c2cnc3cc(OC)c(S(=O)(=O)C(C)(C)C)cn23)cn(C)c1=O [Example 124]
2. COc1cc2ncc(-c3cc(F)nc(NC4CCOCC4)c3)n2cc1S(=O)(=O)C(C)(C)C [Example 212]
3. COc1cc2ncc(-c3cc(F)c(OC)c(OCCCO)c3)n2cc1S(=O)(=O)C(C)(C)C [compound 339]
4. COc1cc2ncc(-c3cc(C#N)c(N)nc3F)n2cc1S(=O)(=O)C(C)(C)C [Example 107]

> 1000 nM
> 1000 nM
> 1000 nM
> 1000 nM

What the record says about COc1cc2ncc(-c3ccc(N)nc3)n2cc1S(=O)(=O)C(C)(C)C [Example 15] : IC50 is > 1000 nM

====

Target: GST-RIPK2 fusion protein (human RIPK2 amino acids 1-310) (Homo sapiens (Human))
Experiment: RIPK2 binding competition assay (TR-FRET, Tracer 199)
Conditions: read-out: RIPK2 IC50; RIPK2 binding competition assay
pIC50: −log10 of the molar value.
measured-attribute: pIC50

>>> recorded_result("COc1cc2ncc(-c3cc(NCCCO)cc(F)n3)n2cc1S(=O)(=O)C(C)(C)C [Example 252]")
"< 7.70"
>>> recorded_result("COc1cc2ncc(-c3cnc(N)cn3)n2cc1S(=O)(=O)C(C)(C)C [Example 103]")
"< 7.70"
>>> recorded_result("COc1cc(NCCCO)cc(-c2cnc3cc(OC)c(S(=O)(=O)C(C)(C)C)cn23)n1 [compound 321]")
"< 7.70"
>>> recorded_result("COc1cc2ncc(-c3cc(F)c(N)nc3O)n2cc1S(=O)(=O)C(C)(C)C [Example 167]")
"< 7.70"
>>> recorded_result("CCCS(=O)(=O)Nc1cc(-c2cnc3cc(OC)c(S(=O)(=O)C(C)(C)C)cn23)cc(F)n1 [Example 304]")
"< 7.70"

Next up:
What the record says about CCCS(=O)(=O)Nc1nc(-c2cnc3cc(OC)c(S(=O)(=O)C(C)(C)C)cn23)ccc1CC [Example 160] : pIC50 is < 7.70

====

System: NF-κB pathway (SEAP) in THP1-Dual cells
Assay: THP-1 Dual cell SEAP assay (L18-MDP stimulated)
Format: cell-based
Conditions: Homo sapiens, THP1-Dual, read-out: NFkB THP1 IC50
For each entry below, report its IC50 value.

Below are worked cases with known answers.
>>> recorded_result("COc1cc(NCCCO)cc(-c2cnc3cc(OC)c(S(=O)(=O)C(C)(C)C)cn23)n1")
"> 1 µM"
>>> recorded_result("COc1cc2ncc(-c3ccc(O)nc3)n2cc1S(=O)(=O)C(C)(C)C")
"> 1 µM"
>>> recorded_result("COc1cc2ncc(-c3cc(F)nc(NCC(C)(C)O)c3)n2cc1S(=O)(=O)C(C)(C)C")
"< 0.05 µM"
>>> recorded_result("COc1cc2ncc(-c3cnc(N)c(CO)c3)n2cc1S(=O)(=O)C(C)(C)C")
"> 1 µM"
>>> recorded_result("CNc1ncc(-c2cnc3cc(OC)c(S(=O)(=O)C(C)(C)C)cn23)cc1F")
"> 1 µM"

Each of the following entries comes with a recorded value; kindly state IC50 for each.
1. COc1cc2ncc(-c3cnc(N)cn3)n2cc1S(=O)(=O)C(C)(C)C
2. CCCS(=O)(=O)Nc1cccc(-c2cnc3cc(OC)c(S(=O)(=O)C(C)(C)C)cn23)c1F

> 1 µM
> 1 µM

Each of the following entries comes with a recorded value; kindly state IC50 for each.
1. COc1cc2ncc(-c3cc(F)nc(N(C)C)c3)n2cc1S(=O)(=O)C(C)(C)C
2. COc1cc2ncc(-c3cc(F)nc(NCCC(C)(C)OC)c3)n2cc1S(=O)(=O)C(C)(C)C
3. COc1cc2ncc(-c3cc(F)nc(NC4CC(O)C4)c3)n2cc1S(=O)(=O)C(C)(C)C (centres unmarked)
4. COc1cc2ncc(-c3cc(F)c(N)nc3OC)n2cc1S(=O)(=O)C(C)(C)C
5. COc1cc2ncc(-c3cccc(N)c3F)n2cc1S(=O)(=O)C(C)(C)C

1. < 0.05 µM
2. < 0.05 µM
3. < 0.05 µM
4. 0.25 to 1 µM
5. > 1 µM

Each of the following entries comes with a recorded value; kindly state IC50 for each.
1. COc1cc2ncc(-c3ccc(N)c(Cl)c3F)n2cc1S(=O)(=O)C(C)(C)C
2. CCCS(=O)(=O)Nc1nc(-c2cnc3cc(OC)c(S(=O)(=O)C(C)(C)C)cn23)ccc1C

["> 1 µM", "> 1 µM"]

====

For each entry below, report its pIC50 value.
Target: GST-RIPK2 fusion protein (human RIPK2 amino acids 1-310) (Homo sapiens (Human), UniProt O43353)
Sequence (O43353 1-310): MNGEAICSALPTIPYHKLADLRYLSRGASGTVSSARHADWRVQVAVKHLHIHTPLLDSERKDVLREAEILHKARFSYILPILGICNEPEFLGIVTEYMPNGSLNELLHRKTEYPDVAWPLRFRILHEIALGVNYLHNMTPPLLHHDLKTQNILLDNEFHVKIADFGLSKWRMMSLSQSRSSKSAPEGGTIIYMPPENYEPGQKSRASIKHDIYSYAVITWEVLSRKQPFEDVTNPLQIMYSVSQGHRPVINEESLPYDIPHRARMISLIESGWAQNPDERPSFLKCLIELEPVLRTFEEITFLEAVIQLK
Assay: RIPK2 binding competition assay (TR-FRET, Tracer 199)
pIC50: −log10 of the molar value.

Below are worked cases with known answers.
>>> recorded_result("COc1cc2ncc(-c3cc(F)nc(N4CCN(C)CC4)c3)n2cc1S(=O)(=O)C(C)(C)C")
"7.70 to 8.60"
>>> recorded_result("CCCS(=O)(=O)Nc1cc(-c2cnc3cc(OC)c(S(=O)(=O)C(C)(C)C)cn23)cc(F)c1F")
"8.60 to 9.00"
>>> recorded_result("COc1cc2ncc(-c3cc(F)nc(NCCCNC(C)=O)c3)n2cc1S(=O)(=O)C(C)(C)C")
"8.60 to 9.00"
>>> recorded_result("COc1cc2ncc(-c3cc(F)nc(NCC[C@@H]4CNC(=O)C4)c3)n2cc1S(=O)(=O)C(C)(C)C (single isomer, unassigned)")
"> 9.00"
>>> recorded_result("COc1cc2ncc(-c3cccc(NS(C)(=O)=O)c3)n2cc1S(=O)(=O)C(C)(C)C")
"7.70 to 8.60"

Each of the following entries comes with a recorded value; kindly state pIC50 for each.
1. COc1cc(-c2cnc3cc(OC)c(S(=O)(=O)C(C)(C)C)cn23)cc(N)n1
2. COc1cc2ncc(-c3cccc(N)c3F)n2cc1S(=O)(=O)C(C)(C)C
3. COc1cn2ncc(-c3cc(C#N)c(N)nc3F)c2cc1S(=O)(=O)C(C)(C)C
4. CCCS(=O)(=O)Nc1cc(F)cc(-c2cnc3cc(OC)c(S(=O)(=O)C(C)(C)C)cn23)c1F
5. COc1cc2ncc(-c3cc(F)c(OC)c(C4CC4)c3)n2cc1S(=O)(=O)C(C)(C)C

1. 7.70 to 8.60
2. 7.70 to 8.60
3. 7.70 to 8.60
4. 7.70 to 8.60
5. 8.60 to 9.00
